assay: yeast display, Sf9 membrane polyspecificity reagent, FACS + sequencing; frameworks hold sequencing errors
observation_type: polyreactivity (PSR sort gate)

INSERT INTO results (item_sequence, observation_type, result) VALUES
  ('QVQLVETGGGLVQAGGSLRLSCAASGFTFSYYAMGWYRQAPGKERELVAAISWSGGSTYYADSVKGRFTISRDNAKNTVYLLMNSLKPEDTAVYYSNKVGRAIGPYDYWGQGTQVTVSS', 'polyreactivity (PSR sort gate)', 'high polyreactivity'),
  ('QVQLVESGGGLVQAGGSLRLSCVASGRTFATYTLGWYRPAPGKERELVAAITTSGGTYYADSVKGRFTISRDNAKNTVYLQMNSLKPEDTAVYYCANVSYYTSAPWYYYWGQGTQVTVSS', 'polyreactivity (PSR sort gate)', 'high polyreactivity'),
  ('QVQLVESGGGLVQAGGSLRLSCAASGSTLYGNVMGWFRQAPGKERELVATINRGGSTNYADSVKGRFTISRDNAKNTVYLQMNSLKPEDTAVYYCAVYHYSSYEYLGQGTQVTVSS', 'polyreactivity (PSR sort gate)', 'low polyreactivity'),
  ('QVQLVESGGGLVQAGGSLRLSCAASGSIFGWNAMGWYRQAPGKERELVAAISSGGSTYYADSVKGRFTISRDNAKNTVYLQMNSLKPQDTAVYYCNAFFQYYDYWGQGTQVTVSS', 'polyreactivity (PSR sort gate)', 'low polyreactivity'),
  ('QVQLVESGGGLVQAGGSLRLSCAASGGTFYFYAMGWDRQAPGKERELVAAISRSVGSTYYADSVKGRFTISRDNAKNTVYLQMNSLKPEDTAVYYCAARYTGGGIRYDYWGQGTQVTLSS', 'polyreactivity (PSR sort gate)', 'high polyreactivity');
